system.under.test: ERα (Homo sapiens, UniProt P03372)
Construct: host or cells: MCF7
Sequence (P03372 1-595): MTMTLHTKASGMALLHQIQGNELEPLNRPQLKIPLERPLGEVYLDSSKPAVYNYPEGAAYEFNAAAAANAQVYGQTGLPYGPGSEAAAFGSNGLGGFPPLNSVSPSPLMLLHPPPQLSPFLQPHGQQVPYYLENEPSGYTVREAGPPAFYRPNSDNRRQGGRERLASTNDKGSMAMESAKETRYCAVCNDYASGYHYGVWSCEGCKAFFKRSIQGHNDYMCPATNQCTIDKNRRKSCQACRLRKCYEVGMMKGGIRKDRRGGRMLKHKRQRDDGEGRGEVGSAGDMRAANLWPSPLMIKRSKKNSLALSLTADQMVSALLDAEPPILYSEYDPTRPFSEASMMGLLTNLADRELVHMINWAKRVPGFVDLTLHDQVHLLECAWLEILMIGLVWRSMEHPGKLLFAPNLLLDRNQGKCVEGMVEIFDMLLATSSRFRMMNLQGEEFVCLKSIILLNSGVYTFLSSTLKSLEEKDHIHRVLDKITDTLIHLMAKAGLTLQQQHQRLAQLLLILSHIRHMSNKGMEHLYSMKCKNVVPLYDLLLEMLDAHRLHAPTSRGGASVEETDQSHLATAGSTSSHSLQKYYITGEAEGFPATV
assay.info: Estrogen receptor degradation activity: breast cancer cell ERα in cell western assay (MCF7 cells)
Format: cell-based
conditions.used: 4 hours, % of ERα levels decrease relative to fulvestrant (0.1 μM) and DMSO
Decide by % Degradation At 0.3 μM: equal to or exceeding 90% means label 1, less means label 0.

Please indicate if the recorded % Degradation At 0.3 μM for Cc1cc(F)cc(C)c1C1=C(c2ccc(/C=C3/CCN(CCC(F)F)C3)cc2)c2ccc(C(=O)O)cc2CCC1 [Compound 20] meets or exceeds 90%.
label 0

Please indicate if the recorded % Degradation At 0.3 μM for Cl.O=C(O)c1ccc2c(c1)CCCC(c1ccc(Cl)cc1Cl)=C2c1ccc(/C=C2/CCN(CCCF)C2)cc1 [Compound 1] meets or exceeds 90%.
label 1

Please indicate if the recorded % Degradation At 0.3 μM for O=C(O)c1ccc2c(c1)CCCC(c1ccc(F)cc1F)=C2c1ccc(/C=C2/CCN(CCCF)C2)cc1 [Compound 9] meets or exceeds 90%.
label 1

# input for lookup
Please indicate if the recorded % Degradation At 0.3 μM for Cc1cccc(C2=C(c3ccc(/C=C4/CCN(CCCF)C4)cc3)c3ccc(C(=O)O)cc3CCC2)c1C(F)(F)F [Compound 11] meets or exceeds 90%.
label 1

---

system.under.test: ERα (Homo sapiens, UniProt P03372)
Construct: host or cells: MCF7
Sequence (P03372 1-595): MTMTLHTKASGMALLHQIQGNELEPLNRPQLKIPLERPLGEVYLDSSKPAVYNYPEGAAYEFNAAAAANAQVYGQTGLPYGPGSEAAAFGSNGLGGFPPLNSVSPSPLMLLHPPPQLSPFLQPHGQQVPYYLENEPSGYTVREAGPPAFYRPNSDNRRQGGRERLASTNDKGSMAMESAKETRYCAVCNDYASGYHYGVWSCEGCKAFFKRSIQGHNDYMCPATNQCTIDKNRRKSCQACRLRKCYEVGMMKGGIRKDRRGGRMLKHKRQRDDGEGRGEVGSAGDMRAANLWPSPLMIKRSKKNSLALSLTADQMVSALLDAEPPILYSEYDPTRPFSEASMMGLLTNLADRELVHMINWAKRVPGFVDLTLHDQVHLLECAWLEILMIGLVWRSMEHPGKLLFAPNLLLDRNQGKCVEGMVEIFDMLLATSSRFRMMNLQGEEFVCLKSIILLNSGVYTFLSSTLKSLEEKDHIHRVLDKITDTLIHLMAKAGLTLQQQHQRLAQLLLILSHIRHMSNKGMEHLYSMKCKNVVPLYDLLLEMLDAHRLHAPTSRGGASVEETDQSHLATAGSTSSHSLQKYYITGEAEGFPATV
assay.info: Estrogen receptor degradation activity: breast cancer cell ERα in cell western assay (MCF7 cells)
Type: cell-based
conditions.used: 4 hours, % of ERα levels decrease relative to fulvestrant (0.1 μM) and DMSO
Decide by % Degradation At 0.3 μM: equal to or exceeding 90% means rule met, less means rule not met.

Solved cases (4 shown):
Please indicate if the recorded % Degradation At 0.3 μM for Cc1c(Cl)cccc1C1=C(c2ccc(/C=C3/CCN(CCC(F)F)C3)cc2)c2ccc(C(=O)O)cc2CCC1 meets or exceeds 90%.
rule not met

Please indicate if the recorded % Degradation At 0.3 μM for Cl.O=C(O)c1ccc2c(c1)OCCC(c1ccc(Cl)cc1Cl)=C2c1ccc(/C=C2/CCN(CCCF)C2)cc1 meets or exceeds 90%.
rule met

Please indicate if the recorded % Degradation At 0.3 μM for FCCCN1CC/C(=C/c2ccc(C3=C(c4ccccc4Cl)CCCc4ccccc43)cc2)C1 meets or exceeds 90%.
rule not met

Please indicate if the recorded % Degradation At 0.3 μM for Cc1cc(F)cc(C)c1C1=C(c2ccc(/C=C3/CCN(CCCF)C3)cc2)c2ccc(C(=O)O)cc2CCC1 meets or exceeds 90%.
rule met

# input for lookup
Please indicate if the recorded % Degradation At 0.3 μM for O=C(O)c1ccc2c(c1)CCCC(c1cccc(Cl)c1)=C2c1ccc(/C=C2/CCN(CCCF)C2)cc1 meets or exceeds 90%.
rule met
